Item-by-item account of MIC
- Tested on: Staphylococcus aureus
- ASSAY_PROTOCOL: Antibacterial activity against methicillin-resistant Staphylococcus aureus 2 assessed as inhibition of bacterial growth incubated for 18 to 24 hrs by broth microdilution assay
- Format: functional
- REPORTED_CONDITIONS: time 18-24 hrs
OBSERVED_PROPERTY: MIC

1) COc1c(O)cc2oc3cc4c(c(O)c3c(=O)c2c1CC=C(C)C)CCC(C)(C)O4 | 64 µg/mL
2) C=CCOc1cc2oc3cc(OCC=C)c(OC)c(CC=C(C)C)c3c(=O)c2c(OC(=O)C(C)C)c1CC=C(C)C | > 256 µg/mL
3) COc1c(OCCCCCCO)cc2oc3cc(OCCCCCCO)c(CC=C(C)C)c(O)c3c(=O)c2c1CC=C(C)C | > 256 µg/mL
4) COc1cc2oc3cc(OC)c(OC)c(CC=C(C)C)c3c(=O)c2c(OC)c1CC=C(C)C | > 256 µg/mL
5) COc1c(O)cc2oc3cc(OC(=O)C(C)C)c(CC=C(C)C)c(O)c3c(=O)c2c1CC=C(C)C | > 256 µg/mL
